Listed here: items and their measured peptide exchange yield.
- Subject of test: T1, HLA-A*02:01 (peptide-receptive MHC class I monomer from UV-ligand exchange) (human)
- T1 construct: Monomers were captured on streptavidin-coated plates
- Assay explanation: UV-exchange ELISA (anti-b2m); exchange yield grade: + >=10%, ++ >=20%, +++ >=50%, ++++ >=75%

Illustrative cases are given below, each with its answer.
KLGDFGLLVEL [peptide KLGDFGLLVEL (SEQ ID NO 125)] :: ≥ 75%
LLNDRIWLA [peptide LLNDRIWLA (SEQ ID NO 144)] :: 50 to 75%
RTLDKVLEV [peptide RTLDKVLEV (SEQ ID NO 176)] :: 20 to 50%
RLADLEALKV [peptide RLADLEALKV (SEQ ID NO 150)] :: 50 to 75%
KLLDLTVRI [peptide KLLDLTVRI (SEQ ID NO 35)] :: 50 to 75%
KLPSETIFVGC [peptide KLPSETIFVGC (SEQ ID NO 154)] :: 50 to 75%
LLYGKYVSV [peptide LLYGKYVSV (SEQ ID NO 31)] :: 50 to 75%

We next turn to a different binder, shown below.
*Q* Report peptide exchange yield, nothing else, for this binder: FLFGYPKRL [peptide FLFGYPKRL (SEQ ID NO 103)]
*A* 20 to 50%
